For each record, write down the corresponding pest or weed control at 500 g/ha.
Test system: pigweed (Amaranthus retroflexus)
Assay: Test A preemergence
Assay type: in vivo
Conditions: Amaranthus retroflexus, pre-emergence, 240 h, 500 g ai/ha, preemergence; visual injury rating about 10 d after treatment, 0 to 100 scale (0 no effect, 100 complete control); read-out: Pigweed plant response rating
Give bare numbers, in %.

Reference set (4 entries):
Cc1ccc([C@H]2CN(C)C(=O)[C@@H]2C(=O)Nc2ccccc2F)cc1C :: 30
Cc1cc([C@H]2CNC(=O)[C@@H]2C(=O)Nc2ccccc2F)ccc1C(F)(F)F :: 50
CN1C[C@H](c2cc(F)cc(F)c2)[C@@H](C(=O)Nc2cc(O)ccc2F)C1=O :: 0
CN1CC[C@H](c2ccc(OC(F)(F)F)cc2)[C@@H](C(=O)Nc2cccc(F)c2F)C1=O :: 50

Would you be so kind as to report pest or weed control at 500 g/ha for each listed record?
1. Cc1ccc([C@H]2CNC(=O)[C@@H]2C(=O)Nc2cccc(F)c2F)cc1C
2. Cc1cc([C@H]2CN(C)C(=O)[C@@H]2C(=O)Nc2cccc(F)c2F)cc(C)c1Br
3. CSc1ccccc1NC(=O)[C@H]1C(=O)NC[C@@H]1c1cc(F)cc(Cl)c1
4. CN1CC[C@H](c2ccc(OC(F)(F)F)cc2)[C@@H](C(=O)Nc2ccccc2C(F)(F)F)C1=O
5. O=C1NC[C@H](c2ccc3c(c2)OCO3)[C@H]1C(=O)Nc1ccc(F)c(F)c1F

1: 0; 2: 50; 3: 70; 4: 0; 5: 40

Would you be so kind as to report pest or weed control at 500 g/ha for each listed record?
1. CC(C)COc1cccc([C@H]2CNC(=O)[C@@H]2C(=O)Nc2cccc(F)c2F)c1
2. O=C1NC[C@H](c2ccc3c(c2)CCC3)[C@H]1C(=O)Nc1cccc(F)c1F
3. Cc1ccc([C@H]2CN(C)C(=O)[C@@H]2C(=O)Nc2cccc(F)c2F)cc1Cl
4. CN1C[C@H](c2ccc(C(F)(F)F)cc2)[C@@H](C(=O)Nc2cccc(F)c2Cl)C1=O

0
0
40
90

---

System: Kochia (Kochia scoparia)
Test: Test A preemergence
Format: in vivo
Details: Bassia scoparia, pre-emergence, 240 h, 125 g ai/ha, preemergence; 0 to 100 scale where 0 is no effect and 100 is complete control; approx. 10 d; read-out: Kochia plant response rating
ENDPOINT LABEL: pest or weed control at 125 g/ha
Provide the measurement as a number trailed by its unit.

CN1C[C@H](c2cc(C(F)F)cs2)[C@@H](C(=O)Nc2cccc(F)n2)C1=O [Compound 1090] :: 30%

Would you be so kind as to report pest or weed control at 125 g/ha for each listed record?
1. CC(C)Oc1cc([C@H]2CN(C)C(=O)[C@@H]2C(=O)Nc2ccccc2F)ccc1F [Compound 1074]
2. CSc1ccccc1NC(=O)[C@H]1C(=O)N(C)C[C@@H]1c1ccc(F)c(Oc2ccccc2)c1 [Compound 1142]
3. O=C1NC[C@H](c2ccc3c(c2)OCO3)[C@H]1C(=O)Nc1cccc(F)c1C(F)(F)F [Compound 1127]

1: 20%; 2: 0%; 3: 0%

---

System: giant foxtail (Setaria faberii)
Assay: Test A preemergence
Type: in vivo
Conditions: Setaria faberi, pre-emergence, 240 h, 125 g ai/ha, Preemergence, visual injury rating after approximately 10 d; read-out: Foxtail, Giant plant response rating (0 to 100 scale, 0 is no effect, 100 is complete control)
# binarize pest or weed control at 125 g/ha: threshold 80% inclusive, high side MET, low side NOT MET

CN1C[C@H](c2cc(F)cc(Cl)c2)[C@@H](C(=O)Nc2ccccc2S(C)(=O)=O)C1=O [Compound 979] :: MET

Identify whether the reported pest or weed control at 125 g/ha of the following compound is 80% or greater: Cc1ccc([C@H]2CN(C)C(=O)[C@]2(O)C(=O)Nc2cccc(F)c2F)cc1 (racemic) [Compound 1059]
NOT MET

Continue with O=C(Nc1cccc(Cl)c1F)[C@H]1C(=O)N(C2CC2)CC[C@@H]1c1ccc(F)cc1 [Compound 1006]
NOT MET

---

Test system: ragweed (common ragweed, Ambrosia elatior)
Assay: Test A postemergence
Type: in vivo
Conditions: Ambrosia artemisiifolia, post-emergence, 240 h, 125 g ai/ha, postemergence, visual injury rating after approximately 10 d; read-out: Ragweed plant response rating (0 to 100 scale, 0 no effect, 100 complete control)
ENDPOINT LABEL: pest or weed control at 125 g/ha (%)
Give bare numbers, in %.

Reference set (3 entries):
CN1C[C@H](c2cccc(OC(F)(F)C(F)F)c2)[C@@H](C(=O)Nc2ccccc2S(C)(=O)=O)C1=O :: 0
Cc1c(F)ccc([C@H]2CNC(=O)[C@@H]2C(=O)Nc2ccccc2S(C)(=O)=O)c1F :: 20
CN1C[C@H](c2cccc(OC(F)(F)C(F)F)c2)[C@@H](C(=O)Nc2ccccc2[S+](C)[O-])C1=O (some centres unmarked) :: 0

Would you be so kind as to report pest or weed control at 125 g/ha for each listed record?
1. CN1C[C@H](c2cc(F)c(C(F)(F)F)c(F)c2)[C@@H](C(=O)Nc2ccccc2F)C1=O
2. COc1cccc(C2CN(C)C(=O)C2C(=O)Nc2cccc(F)c2F)c1 (centres unmarked)

1: 20; 2: 0

---

System: redroot pigweed (Amaranthus retroflexus)
Assay: Test G Pre-Emergence Protocol
Assay type: in vivo
Conditions: Amaranthus retroflexus, pre-emergence, 312 h, 250 g ai/ha, evaluated after 13 days, read-out: Pigweed, Redroot damage rating (100=total damage to plant; 0=no damage to plant)
From the text: Seeds of corn (Zea mays), giant foxtail (Setaria faberi), barnyardgrass (Echinochloa crus-galli), ivy-leaved morning glory (Ipomoea hederacea), redroot pigweed (Amaranthus retroflexus) and velvetleaf (Abutilon theophrasti) were sown in standard soil in pots. […]
ENDPOINT LABEL: pest or weed control at 250 g/ha (%)
Answers are plain numbers, in %.

Reference set (4 entries):
CN1C[C@H](c2cccc(C(F)(F)F)c2)[C@@H](C(=O)Nc2cccc(O)c2F)C1=O (racemic) :: 10
CSc1nccc(NC(=O)[C@@H]2C(=O)N(C)C[C@H]2c2ccc(C(F)(F)F)cc2)n1 (racemic) :: 0
Cc1ccc(C2CN(C)C(=O)C2C(=O)Nc2cccc(F)c2F)cc1[N+](=O)[O-] (stereo not shown) :: 30
CN1C[C@@H](c2ccc(C(F)(F)F)cc2)[C@H](C(=O)Nc2cc(Cl)nc(Cl)c2)C1=O (racemic) :: 0

Would you be so kind as to report pest or weed control at 250 g/ha for each listed record?
1. Cc1ccc([C@@H]2CN(C)C(=O)[C@H]2C(=O)Nc2cccc(F)c2F)cc1Cl (racemic)
2. CN1C[C@@H](c2ccc(C(F)(F)F)cc2)[C@H](C(=O)Nc2cccc(C(F)(F)F)c2[N+](=O)[O-])C1=O (racemic)

0
0

I am curious: what pest or weed control at 250 g/ha value has been reported for CN1C[C@H](c2ccc(C(F)(F)F)cc2)[C@@H](C(=O)Nc2cccc3c2C(=O)OC3)C1=O (racemic) ?
20

---

For each record, write down the corresponding pest or weed control at 250 g/ha.
Tested on: barnyardgrass (Echinochloa crus-galli)
Experiment: Test B flooded paddy test
Type: in vivo
Conditions: Echinochloa crus-galli, 360 h, Flood, 250 g ai/ha; visually evaluated after 13 to 15 d; read-out: Plant response rating, Barnyardgrass (0 to 100 scale where 0 is no effect and 100 is complete control)
Answers are plain numbers, in %.

O=C1NC[C@H](c2cncs2)[C@H]1C(=O)Nc1ccccc1F [Compound 1335] :: 0
CN1C[C@H](c2ccc(C(F)(F)F)cc2)[C@@H](C(=O)Nc2ccccc2C#N)C1=O [Compound 1379] :: 55

Would you be so kind as to report pest or weed control at 250 g/ha for each listed record?
1. N#Cc1cc([C@H]2CNC(=O)[C@]2(O)C(=O)Nc2cccc(F)c2F)ccc1F [Compound 1374]
2. Cc1cccc([C@H]2CN(C)C(=O)[C@@H]2C(=O)Nc2cccnc2F)c1 [Compound 1345]
3. O=C1NC[C@H](c2cc(Br)cc(Br)c2)[C@H]1C(=O)Nc1cccc(F)c1F [Compound 1366]
4. CN1C[C@H](c2ccc(C(F)(F)F)cc2)[C@@H](C(=O)Nc2cccc(C#N)c2F)C1=O [Compound 1381]
5. COc1ccc([C@H]2CN(C)C(=O)[C@@H]2C(=O)Nc2cccc(F)c2F)cc1 [Compound 1343]

0
90
40
65
95

---

System: velvetleaf (Abutilon theophrasti)
Assay: Test G Pre-Emergence Protocol
Format: in vivo
Conditions: Abutilon theophrasti, pre-emergence, 312 h, 250 g ai/ha, evaluated after 13 days, read-out: Velvetleaf damage rating (100=total damage to plant; 0=no damage to plant)
Source text: Seeds of corn (Zea mays), giant foxtail (Setaria faberi), barnyardgrass (Echinochloa crus-galli), ivy-leaved morning glory (Ipomoea hederacea), redroot pigweed (Amaranthus retroflexus) and velvetleaf (Abutilon theophrasti) were sown in standard soil in pots. […]
For each record, write down the corresponding pest or weed control at 250 g/ha.
Numbers only, in %.

COc1cc(F)cc(C2CN(C)C(=O)C2C(=O)Nc2cccc(F)c2F)c1 (stereo not shown) :: 0

Would you be so kind as to report pest or weed control at 250 g/ha for each listed record?
1. CN1C[C@@H](c2ccc(C(F)(F)F)cc2)[C@H](C(=O)Nc2[nH]ncc2C#N)C1=O (racemic)
2. CN1C[C@@H](c2ccc(C(F)(F)F)cc2)[C@H](C(=O)Nc2cn(C)nn2)C1=O (racemic)
3. CN1C[C@@H](c2ccc(C(F)(F)F)cc2)[C@H](C(=O)Nc2ccc(Cl)nc2)C1=O (racemic)

0
0
0
